biological target: human ether-à-go-go-related gene (hERG) potassium channel (human); assay: primary screen, population patch clamp on CHO cells stably expressing hERG; higher = less effect of the substance;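 also: peak tail current of the secondary pulse compared with the same well before compound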
Sequence (Q12809 whole entry, looked up): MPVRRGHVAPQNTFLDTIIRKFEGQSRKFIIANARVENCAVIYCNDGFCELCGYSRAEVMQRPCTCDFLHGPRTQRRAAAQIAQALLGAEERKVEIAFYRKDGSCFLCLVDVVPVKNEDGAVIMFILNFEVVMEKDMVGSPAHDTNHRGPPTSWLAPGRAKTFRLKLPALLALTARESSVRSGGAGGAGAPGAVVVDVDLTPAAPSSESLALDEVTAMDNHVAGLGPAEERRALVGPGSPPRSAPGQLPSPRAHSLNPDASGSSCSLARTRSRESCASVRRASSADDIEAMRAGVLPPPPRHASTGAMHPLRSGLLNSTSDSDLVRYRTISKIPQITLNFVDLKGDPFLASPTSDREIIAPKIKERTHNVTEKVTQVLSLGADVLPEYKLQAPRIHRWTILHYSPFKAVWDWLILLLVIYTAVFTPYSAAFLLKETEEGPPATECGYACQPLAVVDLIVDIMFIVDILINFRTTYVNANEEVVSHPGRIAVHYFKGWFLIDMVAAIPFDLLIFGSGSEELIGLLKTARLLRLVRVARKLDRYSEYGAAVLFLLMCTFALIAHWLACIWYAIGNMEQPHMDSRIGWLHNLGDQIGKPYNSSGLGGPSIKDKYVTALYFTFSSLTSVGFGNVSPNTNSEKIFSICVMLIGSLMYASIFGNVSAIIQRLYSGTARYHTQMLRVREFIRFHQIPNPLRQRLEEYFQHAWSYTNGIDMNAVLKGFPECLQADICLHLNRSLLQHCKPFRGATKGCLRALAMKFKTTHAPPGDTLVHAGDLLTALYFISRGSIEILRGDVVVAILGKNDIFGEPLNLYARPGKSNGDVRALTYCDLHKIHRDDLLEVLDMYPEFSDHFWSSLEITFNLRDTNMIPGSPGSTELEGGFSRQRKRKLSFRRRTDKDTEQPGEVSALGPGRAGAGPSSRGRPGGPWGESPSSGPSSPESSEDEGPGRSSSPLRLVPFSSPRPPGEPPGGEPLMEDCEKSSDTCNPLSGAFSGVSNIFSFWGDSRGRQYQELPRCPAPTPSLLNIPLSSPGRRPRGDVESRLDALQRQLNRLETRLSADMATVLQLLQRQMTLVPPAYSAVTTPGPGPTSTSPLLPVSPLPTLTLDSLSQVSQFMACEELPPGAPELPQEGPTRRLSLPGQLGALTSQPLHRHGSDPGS
About 14,000 (4.5%) of roughly 310,000 compounds showed an effect of 50% or more. Effects have a minus sign here. For the sample, strong results were picked, then their nearest neighbours and some compounds at random.
Measured Metric: hERG current change (%, negative = inhibition) at 10uM (%)
Response body: numeric value in %, unit text excluded.

Some solved cases for reference:
{"Molecule": "Cc1ccc(NC(=O)CCN2CCC(Cc3ccccc3)CC2)cc1", "Experimental Value": -75.1}
{"Molecule": "COc1cccc(CN2CCc3ccc(NC(=O)CCc4ccc(C)cc4)cc3C2)c1O", "Experimental Value": -52.2}
{"Molecule": "Cc1cc(C)c2c(c1)/C(=N/NS(=O)(=O)c1ccccc1)CCC2", "Experimental Value": 7.48}

// `CCOc1ccc(S(=O)(=O)NCc2ccccc2)cc1C(N)=O` : hERG current change (%, negative = inhibition) at 10uM value = 18.9

The molecule listed as O=C(C1CCCN(S(=O)(=O)c2ccc(F)cc2)C1)N1CCCCC1 (stereo not drawn) shows hERG current change (%, negative = inhibition) at 10uM equal to 6.09
